Target: HLA-B07.02 (human)
Test: competition vs radiolabeled reference peptide on purified MHC I, gel filtration
Settings: remark: other sources report otherwise
readout-type: IC50 (nM)

- binder: "WLHKRGKYI"
  readout-type: "IC50"
  reported-measurement: 2650
- binder: "SLPRFILMEL"
  readout-type: "IC50"
  reported-measurement: 583

[a] RVAKIADFGM
[b] MQLMPFGCL
[c] SLLNYLREM
Exam item: Provide the items ranked by increasing IC50. A complete answer lists every label in the requested sequence.
Marked response: c, b, a
(c: 1110 nM, b: 2270 nM, a: 9720 nM)
